# tgt: 5-HT1A receptor (Homo sapiens (Human))
# experiment: FLIPR Ca2+ flux functional assay, agonist activity at 5-HT1A
Counter-ions that a name gives are not always drawn.
reported metric: EC50 (µM)
Give your result in µM as a bare value.

// returns reported EC50 for input CN(C)CCc1c[nH]c2ccc(OC(F)(F)F)cc12 [Compound 1, hydrochloride] 6.33

---

# tgt: UniProtKB P41595
# Sequence (P41595 whole entry, looked up): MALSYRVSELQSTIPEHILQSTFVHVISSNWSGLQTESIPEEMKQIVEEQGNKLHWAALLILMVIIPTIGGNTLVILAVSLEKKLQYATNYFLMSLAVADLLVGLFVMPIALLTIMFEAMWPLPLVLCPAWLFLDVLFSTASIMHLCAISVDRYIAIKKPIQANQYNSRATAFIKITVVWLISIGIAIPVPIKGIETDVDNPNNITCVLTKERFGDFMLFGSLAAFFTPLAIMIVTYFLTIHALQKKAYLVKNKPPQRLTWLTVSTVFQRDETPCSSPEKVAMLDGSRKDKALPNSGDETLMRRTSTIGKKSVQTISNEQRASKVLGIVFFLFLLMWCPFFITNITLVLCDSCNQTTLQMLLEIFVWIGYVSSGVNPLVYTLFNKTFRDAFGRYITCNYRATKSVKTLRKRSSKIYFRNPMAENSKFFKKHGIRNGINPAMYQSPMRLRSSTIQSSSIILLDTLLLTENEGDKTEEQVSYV
# experiment: FLIPR Ca2+ flux functional assay, agonist activity at 5-HT2B
Structures can show the parent of a compound that is named as a salt.
reported metric: pEC50
A value of pEC50 is the negative decimal logarithm of a concentration given in moles per litre.

// returns reported pEC50 for input CN(C)CCc1c[nH]c2ccc(OC(F)(F)F)cc12 [Compound 1, hydrochloride] 6.12

---

# tgt: 5-HT2A receptor (Homo sapiens (Human))
# experiment: FLIPR Ca2+ flux functional assay, agonist activity at 5-HT2A
# Type: cell-based
Where a name gives a salt, the structure may show the parent alone.
reported metric: pEC50
A value of pEC50 is the negative decimal logarithm of a concentration given in moles per litre.

// returns reported pEC50 for input CN(C)CCc1c[nH]c2ccc(OC(F)(F)F)cc12 [Compound 1, hydrochloride] 6.90

---

The following compounds each carry a recorded Ki for 5-HT2A receptor (Homo sapiens (Human), UniProt P28223).
Where a name gives a salt, the structure may show the parent alone.
Give your result in nM as a bare value.

Give recorded Ki with 5-HT2A receptor (Homo sapiens (Human), UniProt P28223) for the following compound: CN(C)CCc1c[nH]c2ccccc12 [DMT, N,N-dimethyltryptamine, reference compound] 416

Give recorded Ki with 5-HT2A receptor (Homo sapiens (Human), UniProt P28223) for the following compound: CN(C)CCc1c[nH]c2ccc(OC(F)(F)F)cc12 [Compound 1, hydrochloride] 890

---

# tgt: UniProt P28223
# experiment: FLIPR Ca2+ flux functional assay, agonist activity at 5-HT2A
# Type: cell-based
# settings: HEK293 stably transfected cells, Ca2+ flux; read-out: 5-HT2A EC50
reported metric: pEC50
A value of pEC50 is the negative decimal logarithm of a concentration given in moles per litre.

// returns reported pEC50 for input CN(C)CCc1c[nH]c2ccccc12 [DMT, N,N-dimethyltryptamine, reference compound] 7.65
